This collection of values is drawn from ChEMBL document CHEMBL1201862.

Biological target: 26S proteasome non-ATPase regulatory subunit 14 (Homo sapiens)
Sequence (O00487 whole entry): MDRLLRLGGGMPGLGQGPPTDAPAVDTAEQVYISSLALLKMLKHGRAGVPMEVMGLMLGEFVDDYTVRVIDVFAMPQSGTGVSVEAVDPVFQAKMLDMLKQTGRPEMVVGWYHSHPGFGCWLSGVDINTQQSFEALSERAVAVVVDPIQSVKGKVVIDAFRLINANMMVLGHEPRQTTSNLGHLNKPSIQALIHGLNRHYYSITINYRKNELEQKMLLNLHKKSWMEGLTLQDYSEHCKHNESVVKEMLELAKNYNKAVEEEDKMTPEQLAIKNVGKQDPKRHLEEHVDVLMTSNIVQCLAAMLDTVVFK
Assay: inhibition of proteasome subunit RPN11 – biochemical, fluorescence polarization, uHTS hits, confirmation (AID 602368)
Format: functional
The source made the active and inactive calls. The rule behind the calls is not given here.
Choose one outcome from this list and give only that: active, inactive

Worked examples follow.
CC(C1SC(=S)NC1=O)C1SC(=S)NC1=O (centres undefined)    active
Cc1ccc(-c2ccc(/C=C3\SC(N4CCOCC4)=NC3=O)o2)cc1    active
CC1(C)CC(=O)C(/C=N/CC2CCN(C(=O)Cc3ccccc3)CC2)=C(O)C1    inactive

Turning to the following molecule.
Write down the call the test reported for this molecule. Item: COc1cc(/C=C2\SC(N)=NC2=O)cc(Cl)c1O
active

====

Biological target: Microphthalmia-associated transcription factor (Homo sapiens)
Sequence (O75030 whole entry): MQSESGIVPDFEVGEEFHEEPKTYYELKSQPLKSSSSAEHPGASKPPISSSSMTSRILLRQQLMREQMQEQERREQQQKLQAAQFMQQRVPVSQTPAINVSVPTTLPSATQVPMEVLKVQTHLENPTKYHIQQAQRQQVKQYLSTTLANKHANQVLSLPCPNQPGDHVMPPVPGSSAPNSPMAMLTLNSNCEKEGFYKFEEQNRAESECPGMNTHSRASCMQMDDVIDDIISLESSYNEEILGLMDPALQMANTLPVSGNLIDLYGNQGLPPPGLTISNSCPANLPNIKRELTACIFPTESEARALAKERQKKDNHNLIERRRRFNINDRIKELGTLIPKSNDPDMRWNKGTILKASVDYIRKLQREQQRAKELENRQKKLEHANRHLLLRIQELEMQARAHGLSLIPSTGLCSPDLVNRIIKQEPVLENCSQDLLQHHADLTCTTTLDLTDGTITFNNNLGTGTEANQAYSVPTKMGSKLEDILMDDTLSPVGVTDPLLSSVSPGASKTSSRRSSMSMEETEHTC
Test: TRPM1 promoter luciferase signal decrease, dose response, MITF inhibitor project, cell-based, SK-MEL-5, cherry-picked, set 3 (AID 493073);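 note: SK-MEL-5 melanoma cells with luciferase driven by the MITF target TRPM1 promoter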
Type: functional
Activity calls are given as the source filed them. How the calls were made is not given here.
Consider the following compounds; for each one, report its AC50.

Below, 4 compounds whose answers are already recorded.
C=CCNC1=C(Cl)C(=O)c2ccccc2C1=O    4.06 µM (active)
CCOC(=O)N1CCC(NC(=O)C2CCCN(Cc3nc(-c4cccc(C)c4)oc3C)C2)CC1 (centres undefined)    34.9 µM (active)
O=C(Nc1ccc(N2CCN(C(=O)c3ccc(Cl)cc3)CC2)cc1)c1ccc([N+](=O)[O-])o1    7.32 µM (active)
COc1ccccc1C(=O)Nc1nc(-c2ccc(S(=O)(=O)N3CCOCC3)cc2)cs1    4.34 µM (active)

Each compound below has a recorded value; state its AC50.
1. COc1ccc(C(=O)C(CN2CCCC2)c2ccccc2)cc1 (centres undefined)
2. C[C+](C)[N-]Oc1cc(NC(=O)CCl)cc([N+](=O)[O-])c1
3. COc1cccc(NC(=O)Nc2cccc(C(=O)O)c2)c1
4. Cc1[nH]n(-c2ccccc2)c(=O)c1N=Nc1cccc(C(=O)O)c1
5. CCOC(=O)c1ccc2c(c1)[n+](CC)c(/C=C/N(C)c1ccccc1)n2CC

9.13 µM (active)
6.18 µM (active)
2.37 µM (active)
8.07 µM (active)
3.24 µM (active)
